# ASSAY TARGET: AHR (Homo sapiens, UniProt P35869)
# PROTOCOL TEXT: In vitro assay 1: antagonism in human cell line (transactivation assay, U87 cells prestimulated with kynurenic acid, DRE firefly luciferase reporter)
# Format: cell-based
# Parameters: host or cells: U87 glioblastoma cells, stably transfected with DRE firefly luciferase and renilla reporter constructs
# MEASUREMENT PARAMETERS: 150 uM kynurenic acid, 20 hours, read-out: Assay 1: AHR-luc Hum Antagonism IC50
MEASURED METRIC: log10(IC50) (log10 of the value in nM)
Lab note - IC50 converted to log10 from values in nM.

MOLECULE | REPORTED MEASUREMENT
O=C(N[C@H]1COC[C@H]1O)c1cc(-c2ccc(Cl)cc2)nn(-c2cccnc2)c1=O (single isomer, unassigned) [Example 172] | 1.47
O=C(N[C@H]1COC[C@@H]1O)c1cc(-c2ccc(Cl)cc2)nn(-c2cccnc2)c1=O (single isomer, unassigned; enantiomer 2) [Example 170] | 1.76
C[C@H](NC(=O)c1cc(-c2ccc(C(F)(F)F)nc2)nn(-c2cnsc2)c1=O)C(C)(C)O [Example 233] | 0.92
Cn1cc(-n2nc(-c3ccc(Cl)cc3)cc(C(=O)NC(CO)C(F)(F)F)c2=O)cn1 (racemic) [Example 33] | 0.42
O=C(NCC(O)C(F)F)c1cc(-c2ccc(Cl)cc2)nn(-c2cccnc2)c1=O (single isomer, unassigned; (-)) [Example 87] | 1.47

Given the entry CC(C)(O)C(NC(=O)c1cc(-c2ccc(OC(F)(F)F)cc2)nn(-c2cccnc2)c1=O)C(F)(F)F (centres unmarked) [Example 135] , report its measured log10(IC50).
0.90

Given the entry O=C(N[C@H](CO)C(F)(F)F)c1cc(-c2ccc(CF)cc2)nn(-c2cccnc2)c1=O [Example 282] , report its measured log10(IC50).
2.48

Given the entry Cn1cc(-n2nc(-c3ccc(Cl)cc3)cc(C(=O)N[C@@H]3COC[C@@H]3O)c2=O)cn1 (single isomer, unassigned; enantiomer 2) [Example 45] , report its measured log10(IC50).
1.62

###

The reader will find reported IC50 values listed item by item below.
# ASSAY TARGET: UniProt P35869
# Sequence (P35869 11-848): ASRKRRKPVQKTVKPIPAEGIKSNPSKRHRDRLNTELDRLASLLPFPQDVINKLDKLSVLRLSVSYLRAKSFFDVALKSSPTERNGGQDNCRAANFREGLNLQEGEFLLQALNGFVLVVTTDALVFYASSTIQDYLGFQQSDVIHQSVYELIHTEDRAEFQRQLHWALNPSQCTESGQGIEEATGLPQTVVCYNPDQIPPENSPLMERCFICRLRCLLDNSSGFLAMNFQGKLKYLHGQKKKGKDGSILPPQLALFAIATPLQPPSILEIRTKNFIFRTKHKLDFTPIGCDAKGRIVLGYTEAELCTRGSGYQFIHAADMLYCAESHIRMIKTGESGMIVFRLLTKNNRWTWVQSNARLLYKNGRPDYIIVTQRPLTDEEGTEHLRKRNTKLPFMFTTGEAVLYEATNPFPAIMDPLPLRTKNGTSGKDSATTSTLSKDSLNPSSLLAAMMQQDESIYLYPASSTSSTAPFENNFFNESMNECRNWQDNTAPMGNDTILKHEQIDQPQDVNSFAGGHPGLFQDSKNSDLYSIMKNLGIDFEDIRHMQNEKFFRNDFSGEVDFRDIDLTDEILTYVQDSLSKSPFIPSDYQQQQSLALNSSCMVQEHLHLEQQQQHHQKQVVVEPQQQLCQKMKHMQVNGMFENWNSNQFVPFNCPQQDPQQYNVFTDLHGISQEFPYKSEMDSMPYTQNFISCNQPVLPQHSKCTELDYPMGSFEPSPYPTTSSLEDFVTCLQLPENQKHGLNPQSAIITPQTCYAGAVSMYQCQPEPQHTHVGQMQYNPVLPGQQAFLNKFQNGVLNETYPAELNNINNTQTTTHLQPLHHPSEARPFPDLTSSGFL
# PROTOCOL TEXT: In vitro assay 1: antagonism in human cell line (transactivation assay, U87 cells prestimulated with kynurenic acid, DRE firefly luciferase reporter)
# Format: cell-based
# Parameters: host or cells: U87 glioblastoma cells, stably transfected with DRE firefly luciferase and renilla reporter constructs
# MEASUREMENT PARAMETERS: 150 uM kynurenic acid, 20 hours, read-out: Assay 1: AHR-luc Hum Antagonism IC50
Kindly answer with a numeric value in nM, unit omitted.

COMPOUND | ASSAY TARGET | UNITS OF MEASURE | IC50
C[C@@H](NC(=O)c1cc(-c2ccc(OC(F)(F)F)cc2)nn(-c2cnsc2)c1=O)C(C)(C)O | UniProt P35869 | nM | 2.58
Cn1cc(-n2nc(-c3ccc(Cl)cc3)cc(C(=O)N[C@@H](CO)C(F)(F)F)c2=O)cn1 | UniProt P35869 | nM | 130
C[C@@H](CO)NC(=O)c1cc(-c2ccc(Cl)cc2)nn(-c2ccn(C)n2)c1=O | UniProt P35869 | nM | 341

Given the entry C[C@@H](CO)NC(=O)c1cc(-c2ccc(C(F)(F)F)cc2)nn(-c2cnn(C(F)F)c2)c1=O , report its measured IC50.
33

###

# ASSAY TARGET: UniProtKB P35869
# PROTOCOL TEXT: In vitro assay 1: antagonism in human cell line (transactivation assay, U87 cells prestimulated with kynurenic acid, DRE firefly luciferase reporter)
# Format: cell-based
# Design: host or cells: U87 glioblastoma cells, stably transfected with DRE firefly luciferase and renilla reporter constructs
# MEASUREMENT PARAMETERS: 150 uM kynurenic acid, 20 hours, read-out: Assay 1: AHR-luc Hum Antagonism IC50
The reader will find reported IC50 values listed item by item below.
Kindly answer with a numeric value in nM, unit omitted.

Consider the worked cases shown below.
COMPOUND | IC50, nM
CC(C)(O)CNC(=O)c1cc(-c2ccc(C(F)(F)F)nc2)nn(-c2cnsc2)c1=O | 10.6
Cn1cc(-n2nc(-c3ccc(C(F)F)cc3)cc(C(=O)N[C@@H]3COC[C@@H]3O)c2=O)cn1 (single isomer, unassigned) [Example 315] | 15.9

Given the entry O=C(N[C@H](CO)C1CC1)c1cc(-c2ccc(C(F)(F)F)cc2)nn(-c2cccnc2)c1=O , report its measured IC50.
8.44

###

# ASSAY TARGET: AHR (Homo sapiens)
# PROTOCOL TEXT: In vitro assay 1: antagonism in human cell line (transactivation assay, U87 cells prestimulated with kynurenic acid, DRE firefly luciferase reporter)
# Assay type: cell-based
# Design: host or cells: U87 glioblastoma cells, stably transfected with DRE firefly luciferase and renilla reporter constructs
# MEASUREMENT PARAMETERS: 150 uM kynurenic acid, 20 hours, read-out: Assay 1: AHR-luc Hum Antagonism IC50
The reader will find reported pIC50 values listed item by item below.
Quick note: pIC50 values are minus log10 of concentrations in mol/L.

COMPOUND | MEASURED METRIC | REPORTED MEASUREMENT
Cc1cncc(-n2nc(-c3ccc(Cl)cc3)cc(C(=O)N[C@@H](C)CO)c2=O)c1 [Example 304] | pIC50 | 6.46
Cn1cc(-n2nc(-c3ccc(C(F)F)nc3)cc(C(=O)N[C@H]3CCCC[C@H]3O)c2=O)cn1 [Example 54] | pIC50 | 7.84
O=C(NCC(O)C(F)(F)F)c1cc(-c2ccc(OC(F)(F)F)cc2)nn(-c2cccnc2)c1=O (centres unmarked) [Example 146] | pIC50 | 7.99
COC[C@@H](CO)NC(=O)c1cc(-c2ccc(Cl)cc2)nn(-c2cncc(F)c2)c1=O [Example 85] | pIC50 | 7.44
Cn1cc(-n2nc(-c3ccc(Cl)cc3)cc(C(=O)NC[C@H](O)CF)c2=O)cn1 [Example 270] | pIC50 | 7.19
O=C(NC[C@H](O)C(F)(F)F)c1cc(-c2ccc(Cl)cc2)nn(-c2csc(Cl)c2)c1=O [Example 232] | pIC50 | 8.09
C[C@@H](CO)NC(=O)c1cc(-c2ccc(Cl)cc2)nn(-c2cncnc2)c1=O [Example 120] | pIC50 | 7.17
Cc1ccc(-c2cc(C(=O)NC(CO)C(C)C)c(=O)n(-c3cnn(C)c3)n2)cc1 (single isomer, unassigned) [Example 2] | pIC50 | 8.59
O=C(N[C@H](CO)C(F)(F)F)c1cc(-c2ccc(Cl)cc2)nn(-c2cncnc2)c1=O [Example 271] | pIC50 | 7.14
Cn1cc(-n2nc(-c3ccc(Cl)cc3)cc(C(=O)N[C@H]3CCC[C@@H]3O)c2=O)cn1 [Example 49] | pIC50 | 8.19

Given the entry O=C(NC(CO)C(F)(F)F)c1cc(-c2ccc(Cl)cc2)nn(-c2cccnc2)c1=O (racemic) [Example 76] , report its measured pIC50.
7.92

###

# ASSAY TARGET: AHR (Homo sapiens, UniProt P35869)
# PROTOCOL TEXT: In vitro assay 1: antagonism in human cell line (transactivation assay, U87 cells prestimulated with kynurenic acid, DRE firefly luciferase reporter)
# Type: cell-based
# Parameters: host or cells: U87 glioblastoma cells, stably transfected with DRE firefly luciferase and renilla reporter constructs
# MEASUREMENT PARAMETERS: 150 uM kynurenic acid, 20 hours, read-out: Assay 1: AHR-luc Hum Antagonism IC50
MEASURED METRIC: log10 IC50 (log10 of the value in nM)
Lab note - IC50 converted to log10 from values in nM.

COMPOUND | MEASURED METRIC | REPORTED MEASUREMENT
CC(C)(O)CNC(=O)c1cc(-c2ccc(Cl)cc2)nn(-c2cnoc2)c1=O [Example 269] | log10 IC50 | 1.79
O=C(N[C@H]1COC[C@@H]1O)c1cc(-c2ccc(OC(F)(F)F)cc2)nn(-c2cccnc2)c1=O (single isomer, unassigned; enantiomer 2) [Example 162] | log10 IC50 | 1.44

Given the entry O=C(NC[C@@H](O)C(F)(F)F)c1cc(-c2ccc(OC(F)(F)F)cc2)nn(-c2cccnc2)c1=O [Example 293] , report its measured log10 IC50.
1.91

Given the entry Cn1cc(-n2nc(-c3ccc(Cl)cc3)cc(C(=O)N[C@@H](C#N)CO)c2=O)cn1 [Example 227] , report its measured log10 IC50.
0.78

Given the entry O=C(NC(CO)C1CC1)c1cc(-c2ccc(C(F)(F)F)cc2)nn(-c2cccnc2)c1=O (racemic) [Example 109] , report its measured log10 IC50.
0.21

Given the entry CC(C)(O)C(NC(=O)c1cc(-c2ccc(Cl)cc2)nn(-c2cccnc2)c1=O)C(F)(F)F (centres unmarked) [Example 121] , report its measured log10 IC50.
0.40

Given the entry O=C(NCC1(O)CC1)c1cc(-c2ccc(C(F)(F)F)cc2)nn(-c2cccnc2)c1=O [Example 188] , report its measured log10 IC50.
1.10

Given the entry O=C(N[C@H]1COC[C@@H]1O)c1cc(-c2ccc(Cl)cc2)nn(-c2cncc(F)c2)c1=O (single isomer, unassigned; enantiomer 1) [Example 155] , report its measured log10 IC50.
1.96
